Values from ChEMBL document CHEMBL1141565

Target: C-C chemokine receptor type 2 (Homo sapiens, UniProt P41597)
Sequence (P41597 whole entry): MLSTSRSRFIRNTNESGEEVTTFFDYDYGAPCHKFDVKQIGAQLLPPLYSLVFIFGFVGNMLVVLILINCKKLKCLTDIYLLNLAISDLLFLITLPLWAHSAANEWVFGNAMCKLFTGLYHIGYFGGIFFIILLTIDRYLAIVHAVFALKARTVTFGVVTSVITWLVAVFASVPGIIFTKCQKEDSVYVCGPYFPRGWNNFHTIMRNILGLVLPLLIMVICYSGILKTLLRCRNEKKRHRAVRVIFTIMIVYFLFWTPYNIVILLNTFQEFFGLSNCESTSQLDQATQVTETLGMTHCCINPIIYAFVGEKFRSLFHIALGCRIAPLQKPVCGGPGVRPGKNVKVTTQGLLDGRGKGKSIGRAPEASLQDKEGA
Experiment: Displacement of radiolabeled MCP1 from human CCR2 in PBMCs
pIC50: −log10 of the molar value.
endpoint.name: pIC50

a = NS(=O)(=O)c1ccc(C(=O)N[C@@H]2CCCC[C@@H]2NC(=O)CNC(=O)c2cc(C(F)(F)F)ccc2NC(=O)C2CCCCC2)cc1 (racemic)
b = CS(=O)(=O)c1ccc(C(=O)N[C@@H]2CCCC[C@@H]2NC(=O)CNC(=O)c2cccc(C(F)(F)F)c2)cc1 (racemic)
c = Cc1ccc(CN[C@H]2CCCC[C@@H]2NC(=O)CNC(=O)c2cccc(C(F)(F)F)c2)c(C)c1
d = O=C(CNC(=O)c1cccc(C(F)(F)F)c1)N[C@H]1CCCC[C@@H]1NCc1ccc(Cl)cc1 (racemic)
Query :: Rank the items in ascending order with respect to pIC50. // respond by listing labels in the order requested
Result :: d, c, b, a
(d: 6.01, c: 6.27, b: 7.06, a: 8.05)

====

Molecular target: UniProt:P51677
Sequence (whole entry): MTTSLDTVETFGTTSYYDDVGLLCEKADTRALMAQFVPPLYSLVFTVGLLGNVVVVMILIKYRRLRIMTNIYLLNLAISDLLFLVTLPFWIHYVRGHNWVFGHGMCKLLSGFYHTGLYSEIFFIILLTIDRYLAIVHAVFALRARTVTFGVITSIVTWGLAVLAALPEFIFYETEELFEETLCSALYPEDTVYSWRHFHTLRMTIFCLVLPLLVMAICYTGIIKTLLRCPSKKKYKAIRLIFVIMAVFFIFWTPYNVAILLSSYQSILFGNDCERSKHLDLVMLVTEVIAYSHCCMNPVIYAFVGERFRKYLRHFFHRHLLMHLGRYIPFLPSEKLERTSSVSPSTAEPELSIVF
Assay: Binding affinity for human CCR3 at 10 uM
endpoint.name: inhibition (%)

P = CSc1ccc(C(=O)N[C@@H]2CCCC[C@@H]2NC(=O)CNC(=O)c2cc(C(F)(F)F)ccc2NC(=O)NC(C)C)cc1
Q = Nc1ccc(C(F)(F)F)cc1C(=O)NCC(=O)N[C@H]1CCCC[C@H]1NC(=O)c1ccc(S(N)(=O)=O)cc1 (racemic)
Query :: Just tell me: smaller inhibition value, P or Q ? # answer = label of selected item
Result :: Q

====

Target: C-C chemokine receptor type 2 (Homo sapiens, UniProt P41597, E291A)
Sequence (P41597 whole entry E291A): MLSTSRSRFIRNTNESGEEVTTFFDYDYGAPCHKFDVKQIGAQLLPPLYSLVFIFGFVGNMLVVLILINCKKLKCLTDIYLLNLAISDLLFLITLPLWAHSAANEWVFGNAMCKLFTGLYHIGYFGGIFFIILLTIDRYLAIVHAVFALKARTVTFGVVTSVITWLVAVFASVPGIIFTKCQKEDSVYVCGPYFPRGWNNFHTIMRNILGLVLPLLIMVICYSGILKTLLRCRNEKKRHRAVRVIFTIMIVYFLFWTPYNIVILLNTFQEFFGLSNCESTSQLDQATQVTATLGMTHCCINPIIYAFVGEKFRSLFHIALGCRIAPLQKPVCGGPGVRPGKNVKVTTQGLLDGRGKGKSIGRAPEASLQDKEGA
Assay: Binding affinity to CCR2 E291A mutant
endpoint.name: IC50 (nM)

CSc1ccc(C(=O)N[C@@H]2CCCC[C@@H]2NC(=O)CNC(=O)c2cc(C(F)(F)F)ccc2NC(=O)NC(C)C)cc1	3.7

1 = O=C(CNC(=O)c1cccc(C(F)(F)F)c1)N[C@H]1CCCC[C@H]1NCc1ccc(Cl)cc1 (racemic)
2 = Cc1ccc(C(=O)N[C@@H]2CCCC[C@@H]2NC(=O)CNC(=O)c2cccc(C(F)(F)F)c2)c(C)c1 (racemic)
Query :: From the items above, decide which of 1 and 2 has the lower IC50 reading. When you have decided, please share the label of that item.
Result :: 1

====

Target: C-C chemokine receptor type 2 (Homo sapiens, UniProt P41597, T292A)
Sequence (P41597 whole entry T292A): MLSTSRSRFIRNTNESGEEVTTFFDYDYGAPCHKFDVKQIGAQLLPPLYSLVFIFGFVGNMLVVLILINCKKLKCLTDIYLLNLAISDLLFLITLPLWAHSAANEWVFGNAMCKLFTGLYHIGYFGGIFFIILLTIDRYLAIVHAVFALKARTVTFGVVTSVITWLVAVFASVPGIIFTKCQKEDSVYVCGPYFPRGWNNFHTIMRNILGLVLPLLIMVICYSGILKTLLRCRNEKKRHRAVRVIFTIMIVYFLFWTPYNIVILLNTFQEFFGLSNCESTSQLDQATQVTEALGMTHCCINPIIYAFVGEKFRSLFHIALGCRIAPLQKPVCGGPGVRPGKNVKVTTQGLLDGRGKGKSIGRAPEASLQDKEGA
Assay: Binding affinity to CCR2 T292A mutant
endpoint.name: IC50 (nM)
Just the number in nM, nothing appended.

Recorded IC50 (compound "CSc1ccc(C(=O)N[C@@H]2CCCC[C@@H]2NC(=O)CNC(=O)c2cc(C(F)(F)F)ccc2NC(=O)NC(C)C)cc1" ): 304

====

Target: C-C chemokine receptor type 2 (Homo sapiens, UniProt P41597)
Experiment: Displacement of radiolabeled MCP1 from human CCR2 in PBMCs
endpoint.name: IC50 (nM)

# annotated cases, reported IC50 shown
O=C(CNC(=O)c1cccc(C(F)(F)F)c1)N[C@H]1CCCC[C@H]1NC(=O)c1ccc(I)cc1	37
NS(=O)(=O)c1ccc(C(=O)N[C@@H]2CCCC[C@@H]2NC(=O)CNC(=O)c2cccc(C(F)(F)F)c2)cc1 (racemic)	21
O=C(CNC(=O)c1cccc(C(F)(F)F)c1)N[C@H]1CCCC[C@H]1NCc1ccc(OC(F)(F)F)cc1 (racemic)	530
O=C(CNC(=O)c1cccc(C(F)(F)F)c1)N[C@H]1CCCC[C@@H]1NCc1ccc(Cl)cc1Cl (racemic)	7860

I = CSc1ccc(C(=O)N[C@@H]2CCCC[C@@H]2NC(=O)CNC(=O)c2cccc(C(F)(F)F)c2)cc1 (racemic)
II = Cc1ccc(CN[C@@H]2CCCC[C@@H]2NC(=O)CNC(=O)c2cccc(C(F)(F)F)c2)c(C)c1 (racemic)
III = Cc1ccc(C(=O)N[C@@H]2CCCC[C@@H]2NC(=O)CNC(=O)c2cccc(C(F)(F)F)c2)c(C)c1 (racemic)
Query :: In this exercise, place the 3 molecules in ascending sequence of their recorded IC50. Provide your answer as the labels ordered per the instruction.
Result :: I, II, III

====

Target: C-C chemokine receptor type 2 (Homo sapiens)
Assay: Displacement of radiolabeled MCP1 from human CCR2 in PBMCs
endpoint.name: IC50 (nM)

Cc1ccc(C(=O)N[C@@H]2CCCC[C@@H]2NC(=O)CNC(=O)c2cccc(C(F)(F)F)c2)cc1 (racemic)	550

A = O=C(CNC(=O)c1cccc(C(F)(F)F)c1)N[C@H]1CCCC[C@@H]1NC(=O)c1ccc(Cl)cc1 (racemic)
B = O=C(CNC(=O)c1cccc(C(F)(F)F)c1)N[C@H]1CCCC[C@H]1NCc1ccc(C(F)(F)F)cc1 (racemic)
C = Cc1cc(C)c(CN[C@H]2CCCC[C@@H]2NC(=O)CNC(=O)c2cccc(C(F)(F)F)c2)c(C)c1 (racemic)
D = CSc1ccc(C(=O)N[C@@H]2CCCC[C@@H]2NC(=O)CNC(=O)c2cc(C(F)(F)F)ccc2NC(=O)NC(C)C)cc1
E = O=C(CNC(=O)c1cccc(C(F)(F)F)c1)N[C@H]1CCCC[C@H]1NCc1ccc(Cl)cc1 (racemic)
Query :: Rank the 5 compounds: largest IC50 first, smallest last. Note for the reader: the ranking is given by listing the labels in the order requested.
Result :: A, C, E, B, D
(A: 12000 nM, C: 1190 nM, E: 790 nM, B: 400 nM, D: 5.1 nM)

====

Target: C-C chemokine receptor type 2 (Homo sapiens, UniProt P41597)
Assay: Antagonist activity at human CCR2 in PBMCs assessed as inhibition of MCP1-induced calcium flux
Format: functional
endpoint.name: IC50 (nM)

Here are 3 molecules together with their reported answers.
CSc1ccc(C(=O)N[C@@H]2CCCC[C@@H]2NC(=O)CNC(=O)c2cc(C(F)(F)F)ccc2NC(=O)NC(C)C)cc1	18
Nc1ccc(C(F)(F)F)cc1C(=O)NCC(=O)N[C@H]1CCCC[C@H]1NC(=O)c1ccc(S(N)(=O)=O)cc1 (racemic)	4.8
NS(=O)(=O)c1ccc(C(=O)N[C@@H]2CCCC[C@@H]2NC(=O)CNC(=O)c2cccc(C(F)(F)F)c2)cc1 (racemic)	42

a = NS(=O)(=O)c1ccc(C(=O)N[C@@H]2CCCC[C@@H]2NC(=O)CNC(=O)c2cc(C(F)(F)F)ccc2NC(=O)C2CCCCC2)cc1 (racemic)
b = CSc1ccc(C(=O)N[C@@H]2CCCC[C@@H]2NC(=O)CNC(=O)c2cccc(C(F)(F)F)c2)cc1 (racemic)
Query :: Hey, which is lower on measured IC50, a or b ? Your answer should be the label of the entry you select.
Result :: a

====

Biological target: C-C chemokine receptor type 2 (Homo sapiens)
Experiment: Displacement of radiolabeled MCP1 from human CCR2 in PBMCs
pIC50: −log10 of the molar value.
endpoint.name: pIC50

A = Cc1ccc(CN(C)[C@H]2CCCC[C@@H]2NC(=O)CNC(=O)c2cccc(C(F)(F)F)c2)c(C)c1 (racemic)
B = CC(C)c1ccc(CN[C@@H]2CCCC[C@@H]2NC(=O)CNC(=O)c2cccc(C(F)(F)F)c2)cc1 (racemic)
C = Nc1ccc(C(F)(F)F)cc1C(=O)NCC(=O)N[C@H]1CCCC[C@H]1NC(=O)c1ccc(S(N)(=O)=O)cc1 (racemic)
Query :: In this exercise, place the 3 compounds in ascending sequence of their recorded pIC50. I would appreciate it if you listed the labels in the requested order.
Result :: A, B, C

====

Target: C-C chemokine receptor type 3 (Homo sapiens)
Sequence (whole entry): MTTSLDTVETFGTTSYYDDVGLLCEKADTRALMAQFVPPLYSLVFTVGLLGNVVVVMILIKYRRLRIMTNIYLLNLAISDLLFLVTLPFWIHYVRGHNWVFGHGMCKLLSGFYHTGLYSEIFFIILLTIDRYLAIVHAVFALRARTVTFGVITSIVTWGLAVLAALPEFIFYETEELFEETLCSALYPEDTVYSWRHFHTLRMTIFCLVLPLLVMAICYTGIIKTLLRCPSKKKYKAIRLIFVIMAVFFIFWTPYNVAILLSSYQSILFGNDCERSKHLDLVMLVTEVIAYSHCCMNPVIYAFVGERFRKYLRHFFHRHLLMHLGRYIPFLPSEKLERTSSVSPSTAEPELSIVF
Assay: Binding affinity for human CCR3 at 10 uM
endpoint.name: inhibition (%)

NS(=O)(=O)c1ccc(C(=O)N[C@@H]2CCCC[C@@H]2NC(=O)CNC(=O)c2cccc(C(F)(F)F)c2)cc1 (racemic)	39
O=C(CNC(=O)c1cccc(C(F)(F)F)c1)N[C@H]1CCCC[C@H]1NCc1ccc(C(F)(F)F)cc1 (racemic)	47
O=C(CNC(=O)c1cccc(C(F)(F)F)c1)N[C@H]1CCCC[C@H]1NCc1ccc(OC(F)(F)F)cc1 (racemic)	50
O=C(CNC(=O)c1cccc(C(F)(F)F)c1)N[C@H]1CCCC[C@H]1NCc1ccc(Cl)cc1 (racemic)	24
O=C(CNC(=O)c1cccc(C(F)(F)F)c1)N[C@H]1CCCC[C@H]1NC(=O)c1ccc(I)cc1	27

1 = Cc1ccc(CN[C@@H]2CCCC[C@@H]2NC(=O)CNC(=O)c2cccc(C(F)(F)F)c2)c(C)c1 (racemic)
2 = CSc1ccc(C(=O)N[C@@H]2CCCC[C@@H]2NC(=O)CNC(=O)c2cccc(C(F)(F)F)c2)cc1 (racemic)
3 = CS(=O)(=O)c1ccc(C(=O)N[C@@H]2CCCC[C@@H]2NC(=O)CNC(=O)c2cccc(C(F)(F)F)c2)cc1 (racemic)
4 = NS(=O)(=O)c1ccc(C(=O)N[C@@H]2CCCC[C@@H]2NC(=O)CNC(=O)c2cc(C(F)(F)F)ccc2NC(=O)C2CCCCC2)cc1 (racemic)
Query :: Order the items by recorded inhibition; the first position goes to the largest value. Kindly provide the labels arranged according to the requested ordering.
Result :: 1, 2, 4, 3
